Each recorded value in this set is attributed to ChEMBL document CHEMBL6074668.

Target system: UniProtKB P41145
Sequence (P41145 whole entry): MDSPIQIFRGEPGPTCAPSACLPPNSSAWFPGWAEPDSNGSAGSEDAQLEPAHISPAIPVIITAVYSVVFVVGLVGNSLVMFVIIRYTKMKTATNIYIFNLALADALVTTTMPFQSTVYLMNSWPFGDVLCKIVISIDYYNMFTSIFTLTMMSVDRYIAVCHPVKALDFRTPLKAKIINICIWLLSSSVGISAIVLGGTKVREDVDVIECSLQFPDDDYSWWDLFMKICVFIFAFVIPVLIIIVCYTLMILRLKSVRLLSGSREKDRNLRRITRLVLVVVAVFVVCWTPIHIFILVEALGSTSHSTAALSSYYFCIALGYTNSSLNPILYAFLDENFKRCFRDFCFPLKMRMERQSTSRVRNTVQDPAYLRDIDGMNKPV
Experiment notes: Agonist activity at human kappa opioid receptor expressed in CHO-K1 cells assessed as inhibition of forskolin-stimulated cAMP accumulation at 10 uM by HitHunter assay based luminescence analysis
Format: functional, cell-based
The source made the active and inactive calls. The rule behind the calls is not given here.
Attribute measured: Activity

COC(=O)C1=C2Nc3ccccc3[C@@]23CCN2C[C@@](O)([C@@H](C)O)[C@@H]1C[C@H]23; inactive
C/C=C1/C[N+]2(C)CC[C@]34C(=C(C(=O)OC)[C@H]1C[C@@H]32)Nc1ccccc14 (stereo not given in full); inactive
C/C=C1/CN2CC[C@]34c5ccccc5N[C@@H]3[C@H](C(=O)OC)[C@H]1C[C@H]24; inactive
COC(=O)C1=C2Nc3ccccc3[C@@]23CCN2C[C@@](O)(C(C)=O)[C@@H]1C[C@H]23; inactive
C=CC[N+]12CC[C@]34C(=C(C(=O)OC)[C@@H](C[C@@H]31)/C(=C\C)C2)Nc1ccccc14 (stereo not given in full); inactive
C/C=C1/C[N+]2(CCC)CC[C@]34C(=C(C(=O)OC)[C@H]1C[C@@H]32)Nc1ccccc14 (stereo not given in full); inactive
CC[C@@H]1CN2CC[C@]34c5ccccc5N[C@@H]3[C@H](C(=O)OC)[C@H]1C[C@H]24; inactive
C[C@@H](NC(=O)[C@@H](N)Cc1ccc(O)cc1)C(=O)NCC(=O)N(C)[C@@H](Cc1ccccc1)C(=O)NCCO; inactive
COC(=O)C1=C2Nc3ccc(Br)cc3[C@@]23CCN2C[C@@](O)([C@@H](C)O)[C@@H]1C[C@H]23; inactive
C/C=C1/C[N+]2(Cc3ccccc3)CC[C@]34C(=C(C(=O)OC)[C@H]1C[C@@H]32)Nc1ccccc14 (stereo not given in full); inactive
